- assay_notes: NCI Yeast Anticancer Drug Screen. Data for the cln2 rad14 strain (AID 165)
- experimental_setup: S. cerevisiae cln2 rad14 strain, at 5.0 µM (retest, dose inferred, filed as 0.5)
About 79,000 compounds went through this panel and 15% of them were active in at least one assay; those are over-represented in the sample as a whole. Calls of active or inactive are those of the source. Cut-off read from the data, not from the text of the source: active = growth inhibition above about 70%; inactive = the rest.
Possible outcomes: active, inactive

compound: CSC(=S)Nc1cccc(C)n1
class_name: inactive
--
compound: Cc1ccc(S(=O)(=O)Oc2cc(Cl)c(Cl)cc2Cl)cc1
class_name: inactive
--
compound: CC(C)C1=CCC2C(=C1)CCC1C(C)(C(=O)O)CCCC21C (stereo unspecified) (tested in a mixture with another compound)
class_name: inactive
--
compound: Cc1cc(O)cc(O)c1N=Nc1ccc([N+](=O)[O-])cc1
class_name: inactive
--
compound: COc1ccc2nc3cccc([N+](=O)[O-])c3c(NCCN(CCO)CCO)c2c1
class_name: active
--
compound: O=C(OCCN1CCCCCC1)C(c1ccsc1)C1CCCCC1 (stereo unspecified)
class_name: active
--
compound: O=C(Nc1ccccc1)C(=O)C(C(=O)c1ccccc1)C(c1ccccc1)c1ccccc1 (stereo unspecified)
class_name: inactive
--
compound: CC(C)/C(Cl)=N\OC(=O)Nc1ccc(F)cc1
class_name: inactive
--
compound: Cc1cc2c(cc1C(=O)CCC(=O)O)CC1(C2)Cc2cc(C)c(C(=O)CCC(=O)O)cc2C1
class_name: inactive
--
compound: CSC1=NNC(SC)=NN1
class_name: inactive
--
compound: CCNc1nnc(CSc2nc(-c3ccccc3)c(-c3ccccc3)[nH]2)s1
class_name: inactive

Data provenance: PubChem BioAssay (NCI)
